Here the recorded Kb is given for each entry.
Biological target: Histamine H2 receptor (Rattus norvegicus, UniProt P25102)
Sequence (P25102 whole entry): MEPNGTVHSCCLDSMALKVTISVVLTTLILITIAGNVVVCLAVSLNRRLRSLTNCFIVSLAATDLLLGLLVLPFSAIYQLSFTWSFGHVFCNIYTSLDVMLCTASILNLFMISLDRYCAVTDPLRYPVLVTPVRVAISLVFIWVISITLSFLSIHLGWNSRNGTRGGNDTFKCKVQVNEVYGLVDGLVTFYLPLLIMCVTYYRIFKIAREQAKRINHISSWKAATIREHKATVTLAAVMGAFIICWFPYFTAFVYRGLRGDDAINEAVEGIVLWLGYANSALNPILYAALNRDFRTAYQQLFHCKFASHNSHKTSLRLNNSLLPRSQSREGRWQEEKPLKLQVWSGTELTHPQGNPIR
Assay: Antagonistic activity for inhibition of histamine H2 receptor from anesthetized rats
Type: functional
Details: read-out: pA2 (converted)

Worked cases, Kb given:
>>> observed_value("Cc1cccc(NC(=O)NC2N=C(c3ccccc3)c3ccccc3N(CC(=O)NCCCC(=O)NCCCOc3cccc(CN4CCCCC4)c3)C2=O)c1 (centres undefined)")
"794 nM"
>>> observed_value("CN/C(=N/CCSCc1nc[nH]c1C)NC#N [CIMETIDINE]")
"251 nM"
>>> observed_value("CN1C(=O)[C@H](NC(=O)Nc2cccc(CC(=O)NCCSCc3csc(N=C(N)N)n3)c2)N=C(c2ccccc2)c2ccccc21")
"> 10000 nM"

Now, please, on to the next molecule.
Q. Entry "CN1C(=O)[C@H](NC(=O)Nc2cccc(CC(=O)NCCCC(=O)NCCSCc3csc(N=C(N)N)n3)c2)N=C(c2ccccc2)c2ccccc21" : reported Kb = ?
A. 501 nM

* * *

Target: Cholecystokinin receptor (Mus musculus) (UniProt O08786+P56481)
Experiment: Ratio of IC50(gastrin) to IC50(CCK-A)
Assay type: protein assay
measured metric: Ratio
// print number alone

Worked cases, Ratio given:
>>> observed_value("Cc1cccc(NC(=O)NC2N=C(c3ccccc3)c3ccccc3N(CC(=O)NCCSCc3csc(N=C(N)N)n3)C2=O)c1 (centres undefined)")
1600
>>> observed_value("CN1C(=O)[C@H](NC(=O)Nc2cccc(CC(=O)NCCCOc3cccc(CN4CCCCC4)c3)c2)N=C(c2ccccc2)c2ccccc21")
17.8
>>> observed_value("Cc1cccc(NC(=O)NC2N=C(c3cccc(OCC(=O)NCCC(=O)NCCCOc4cccc(CN5CCCCC5)c4)c3)c3ccccc3N(C)C2=O)c1 (centres undefined)")
75

Now, please, on to the next compound.
Q. Entry Cc1cccc(NC(=O)NC2N=C(c3ccccc3)c3ccccc3N(CC(=O)NCCCOc3cccc(CN4CCCCC4)c3)C2=O)c1 (centres undefined) : reported Ratio = ?
A. 36.8

* * *

Target: Histamine H2 receptor (Rattus norvegicus, UniProt P25102)
Test: Antagonistic activity for inhibition of histamine H2 receptor from anesthetized rats
Type: functional
Conditions: read-out: pA2 (converted)
measured metric: Kb

Worked cases, Kb given:
>>> observed_value("Cc1cccc(NC(=O)NC2N=C(c3ccccc3)c3ccccc3N(CC(=O)NCCSCc3csc(N=C(N)N)n3)C2=O)c1 (stereo not drawn)")
"> 10 µM"
>>> observed_value("CN1C(=O)[C@H](NC(=O)Nc2cccc(CC(=O)NCCCOc3cccc(CN4CCCCC4)c3)c2)N=C(c2ccccc2)c2ccccc21")
"> 10 µM"

Q. Entry Cc1cccc(NC(=O)NC2N=C(c3ccccc3)c3ccccc3N(CC(=O)NCCCOc3cccc(CN4CCCCC4)c3)C2=O)c1 (stereo not drawn) : reported Kb = ?
A. > 10 µM

* * *

Target: Cholecystokinin receptor type A (Mus musculus, UniProt O08786)
Sequence (O08786 whole entry): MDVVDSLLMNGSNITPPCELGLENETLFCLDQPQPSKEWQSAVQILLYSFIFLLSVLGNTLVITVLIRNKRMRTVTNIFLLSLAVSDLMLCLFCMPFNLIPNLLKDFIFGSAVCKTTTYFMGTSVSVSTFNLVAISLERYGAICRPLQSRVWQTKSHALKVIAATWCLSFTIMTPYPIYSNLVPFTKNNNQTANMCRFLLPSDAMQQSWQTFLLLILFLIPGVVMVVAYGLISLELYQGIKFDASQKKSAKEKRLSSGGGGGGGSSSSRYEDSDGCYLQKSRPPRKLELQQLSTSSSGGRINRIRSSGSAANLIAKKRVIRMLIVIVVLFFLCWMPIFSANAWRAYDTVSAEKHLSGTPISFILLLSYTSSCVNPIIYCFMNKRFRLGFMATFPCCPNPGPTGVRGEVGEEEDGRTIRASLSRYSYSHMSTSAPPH
Assay: Inhibitory activity against Cholecystokinin type A receptor
measured metric: IC50 (nM)
API: value field is a number in nM; no unit string.

>>> observed_value("CN1C(=O)[C@H](NC(=O)Nc2cccc(CC(=O)NCCSCc3csc(N=C(N)N)n3)c2)N=C(c2ccccc2)c2ccccc21")
560
>>> observed_value("CN1C(=O)[C@H](NC(=O)Nc2cccc(C(=O)NCCSCc3csc(N=C(N)N)n3)c2)N=C(c2ccccc2)c2ccccc21")
380
>>> observed_value("Cc1cccc(NC(=O)NC2N=C(c3cccc(OCC(=O)NCCC(=O)NCCSCc4csc(N=C(N)N)n4)c3)c3ccccc3N(C)C2=O)c1 (centres undefined)")
2000

Now, please, on to the next compound.
Q. # value lookup — system Cholecystokinin receptor type A (Mus musculus, UniProt O08786), readout IC50, item "CN1C(=O)[C@H](NC(=O)Nc2cccc(CC(=O)NCCCOc3cccc(CN4CCCCC4)c3)c2)N=C(c2ccccc2)c2ccccc21"
A. 4100

* * *

Biological target: Gastrin/cholecystokinin type B receptor (Mus musculus, UniProt P56481)
Sequence (P56481 whole entry): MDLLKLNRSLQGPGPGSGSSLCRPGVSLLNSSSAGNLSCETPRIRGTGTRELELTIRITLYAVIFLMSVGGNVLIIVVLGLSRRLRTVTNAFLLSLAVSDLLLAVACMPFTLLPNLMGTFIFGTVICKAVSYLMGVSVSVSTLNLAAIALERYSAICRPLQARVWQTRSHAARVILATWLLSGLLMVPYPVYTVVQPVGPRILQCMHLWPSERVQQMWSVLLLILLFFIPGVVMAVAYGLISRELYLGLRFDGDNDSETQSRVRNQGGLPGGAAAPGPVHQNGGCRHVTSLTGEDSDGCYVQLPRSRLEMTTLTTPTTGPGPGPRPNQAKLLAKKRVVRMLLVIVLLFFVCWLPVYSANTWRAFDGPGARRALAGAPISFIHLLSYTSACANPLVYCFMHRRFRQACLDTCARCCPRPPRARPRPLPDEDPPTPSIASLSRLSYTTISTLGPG
Here the recorded IC50 is given for each entry.
API: value field is a number in nM; no unit string.

Worked cases, IC50 given:
>>> observed_value("CN1C(=O)[C@H](NC(=O)Nc2cccc(CC(=O)NCCCOc3cccc(CN4CCCCC4)c3)c2)N=C(c2ccccc2)c2ccccc21")
160
>>> observed_value("Cc1cccc(NC(=O)NC2N=C(c3ccccc3)c3ccccc3N(CC(=O)NCCC(=O)NCCCOc3cccc(CN4CCCCC4)c3)C2=O)c1 (stereo not drawn)")
2150
>>> observed_value("Cc1cccc(NC(=O)NC2N=C(c3ccccc3)c3ccccc3N(CC(=O)NCCCC(=O)NCCSCc3csc(N=C(N)N)n3)C2=O)c1 (stereo not drawn)")
6600
>>> observed_value("Cc1cccc(NC(=O)NC2N=C(c3ccccc3)c3ccccc3N(CC(=O)NCCCOc3cccc(CN4CCCCC4)c3)C2=O)c1 (stereo not drawn)")
540
>>> observed_value("Cc1cccc(NC(=O)NC2N=C(c3ccccc3)c3ccccc3N(CC(=O)NCCC(=O)NCCSCc3csc(N=C(N)N)n3)C2=O)c1 (stereo not drawn)")
430

Q. # value lookup — system Gastrin/cholecystokinin type B receptor (Mus musculus, UniProt P56481), readout IC50, item "CN1C(=O)[C@H](NC(=O)Nc2cccc(C(=O)NCCSCc3csc(N=C(N)N)n3)c2)N=C(c2ccccc2)c2ccccc21"
A. 440

Q. # value lookup — system Gastrin/cholecystokinin type B receptor (Mus musculus, UniProt P56481), readout IC50, item "CN1C(=O)[C@H](NC(=O)Nc2cccc(CC(=O)NCCC(=O)NCCCOc3cccc(CN4CCCCC4)c3)c2)N=C(c2ccccc2)c2ccccc21"
A. 290

Q. # value lookup — system Gastrin/cholecystokinin type B receptor (Mus musculus, UniProt P56481), readout IC50, item Cc1cccc(NC(=O)NC2N=C(c3cccc(OCC(=O)NCCCC(=O)NCCSCc4csc(N=C(N)N)n4)c3)c3ccccc3N(C)C2=O)c1 (stereo not drawn)
A. 215

Q. # value lookup — system Gastrin/cholecystokinin type B receptor (Mus musculus, UniProt P56481), readout IC50, item Cc1cccc(NC(=O)NC2N=C(c3cccc(OCC(=O)NCCCC(=O)NCCCOc4cccc(CN5CCCCC5)c4)c3)c3ccccc3N(C)C2=O)c1 (stereo not drawn)
A. 290

Q. # value lookup — system Gastrin/cholecystokinin type B receptor (Mus musculus, UniProt P56481), readout IC50, item Cc1cccc(NC(=O)NC2N=C(c3cccc(OCC(=O)NCC(=O)NCCSCc4csc(N=C(N)N)n4)c3)c3ccccc3N(C)C2=O)c1 (stereo not drawn)
A. 310

Q. # value lookup — system Gastrin/cholecystokinin type B receptor (Mus musculus, UniProt P56481), readout IC50, item Cc1cccc(NC(=O)NC2N=C(c3cccc(OCC(=O)NCC(=O)NCCCOc4cccc(CN5CCCCC5)c4)c3)c3ccccc3N(C)C2=O)c1 (stereo not drawn)
A. 550

Q. # value lookup — system Gastrin/cholecystokinin type B receptor (Mus musculus, UniProt P56481), readout IC50, item Cc1cccc(NC(=O)NC2N=C(c3cccc(OCC(=O)NCCCCCC(=O)NCCCOc4cccc(CN5CCCCC5)c4)c3)c3ccccc3N(C)C2=O)c1 (stereo not drawn)
A. 320

Q. # value lookup — system Gastrin/cholecystokinin type B receptor (Mus musculus, UniProt P56481), readout IC50, item "CN1C(=O)[C@H](NC(=O)Nc2cccc(CC(=O)NCCSCc3csc(N=C(N)N)n3)c2)N=C(c2ccccc2)c2ccccc21"
A. 480
